target: human alpha-synuclein monomer (human, UniProt P37840 1-140); test: direct ELISA, plate coated with 1 µg/mL recombinant human alpha-synuclein, antibody titrated, anti-rat HRP, A450
Parameter: EC50 (read off the curve)

Task item: Please supply the value of reported EC50 (read off the curve) for the item 1H5 (antibody, rat IgG2b, V domains shown, also called clone 1H5) VH: AVQLVESGGGLVQPKESLKISCAASGFTFSDAAMYWVRQAPGKGLELVARIRTKPNNYATYYADSVKGRFTISRDDSKSMVYLQMGNLKTEDTAMYYCSADFHYFDYWGQGVMVTVSS VL: DIQMTQSPSVLSASVGDRVTLSCKAGQNINKNLDWYQQKLGEAPKLLISFTNNLQTGVPSRFSGSGSGSDYTLTISSLQPEDVATYYCYQYNSGWTFGGGTKLELK
Reply: ~0.2 µg/mL

Task item: Kindly indicate its recorded EC50 (read off the curve). Item: 20H4 (antibody, rat IgG2b, V domains shown, also called clone 20H4; rat 20H4) VH: AVQLVESGGGLVQPKESLKISCAASGFTFSNAAMYWVRQAPGKGLELLARIRTKPNNYATYHADSVKGRFTISRDDSQSMVYLHMGNLKTEDTAMYYCTADMATGDYWGPGVMVTVSS VL: DIQMTQSPPVLSVSVGDRVTLSCKASQNINKNLDWYQQKHGEAPKPLIYSTNNLQTGVPSRFSGSGSGTDYTLTISSLQPEDVATYYCYQYKSAWTFGGGTKLELR
Reply: ~0.2 µg/mL

Task item: For the binder 18B4 (antibody, IgG2b, V domains shown, also called clone 18B4) VH: EVQLVESGGGLVQPGRSLKLSCAASGFTFSSFAMAWVRQAPKKGLEWVATITSGGSKTYYPDSVKGRFTISRDNAKSTLYLQMDSLRSEDTATYYCAKGYFDYWGQGVMVTVSS VL: DVVLTQTPPTLSATIGQSVSISCRSSQSLLHSNGNTYLHWLLQRPGQSPQLLIYLVSRLESGVPNRFSGSGSGTDFTLKISGVEAEDLGVYYCVQGTHAPLTFGSGTKLEIK , give its reported EC50 (read off the curve).
Reply: ~0.06 µg/mL

Task item: Assign EC50 (read off the curve) to the following record: 22D11 (antibody, rat IgG1, V domains shown, also called clone 22D11) VH: AVQFVESGGGLVRPKESLKISCTASGFTFTNAAIYWVRQAPGKGLECIARIRTKPNNYATYYADSVRGRFTISRDDSKPMVYLQMNELKTEDTAMYYCAADASRGDYWGQGVMVTVSS VL: DIQMTQSPSVLSASVGDRVTFSCKASQNINKNLDWYQQKLGEVPKVLIYFTNNLQTGIPSRFSGSGSGTDYTLTISSLQPEDVATYYCYQYTSGFTFGAGTKLELK
Reply: ~0.04 µg/mL
